# tested target: human GcgR (Homo sapiens, UniProt P47871)
# Sequence (P47871 26-477): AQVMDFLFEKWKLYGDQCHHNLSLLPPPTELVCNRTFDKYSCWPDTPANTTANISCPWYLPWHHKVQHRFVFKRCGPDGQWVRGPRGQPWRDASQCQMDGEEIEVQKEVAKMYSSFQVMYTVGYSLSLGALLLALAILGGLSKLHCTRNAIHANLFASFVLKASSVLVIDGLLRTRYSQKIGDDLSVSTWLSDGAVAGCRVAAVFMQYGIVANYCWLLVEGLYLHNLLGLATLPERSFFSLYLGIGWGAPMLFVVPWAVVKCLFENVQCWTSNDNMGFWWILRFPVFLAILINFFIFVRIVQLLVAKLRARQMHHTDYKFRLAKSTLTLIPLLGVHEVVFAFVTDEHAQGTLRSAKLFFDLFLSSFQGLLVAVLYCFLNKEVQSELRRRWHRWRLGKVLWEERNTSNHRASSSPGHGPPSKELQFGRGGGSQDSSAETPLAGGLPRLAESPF
# test: Functional cAMP activity in the presence of 1% HSA
# Assay type: cell-based
# condition parameters: read-out: cAMP Rel EC50, hGcgR
Starred links: 1 amine or outer side, 2 acyl side, 3 side chain; linkers in the order of their positions; H or OH if unused. Non-standard residues stand in square brackets, D forms with d. Groups on a side chain read outwards from the residue. *: point of attachment. C20 diacid = O=C(O)CCCCCCCCCCCCCCCCCCC(=O)*; C18 diacid = O=C(O)CCCCCCCCCCCCCCCCC(=O)*; αMePhe(2-F) = C[C@](N)(Cc1ccccc1F)C(=O)O; γGlu = O=C(O)[C@H](CCC(=O)[*:2])N[*:1]; 4Pal = N[C@@H](Cc1ccncc1)C(=O)O; αMeL = CC(C)C[C@](C)(N)C(=O)O; αMeS = C[C@](N)(CO)C(=O)O; Orn = NCCC[C@H](N)C(=O)O; AEEA = NCCOCCOCC(=O)O; Aib = CC(C)(N)C(=O)O
measured quantity: EC50 (nM)
Express the result in nM but write the number alone.

Known EC50 results, listed for orientation:
H-Y[Aib]QGT[αMePhe(2-F)]TSD[4Pal][αMeS]I[αMeL]LD[Orn]K([γGlu-γGlu-C18 diacid])AQ[Aib][Orn]FI[dE]YLIEGGPSSGEPPPSGTEEE-NH2 [Example 540]
405
H-Y[Aib]QGTFTSDFS[Orn][αMeL]LDKK([AEEA-γGlu-C18 diacid])AQ[Aib]AFIEWLLEGGSSSGAPPPSGE-NH2 [Example 172]
605

Now, please, on to the next substance.
**Q:** // lookup EC50 for H-Y[Aib]QGTFTSDYSI[αMeL]LDKQAAK([AEEA-AEEA-γGlu-C20 diacid])QFIEWLIEGGPSSGEPPPGEG-NH2 [Example 318]
**A:** 1970

* * *

# tested target: human GcgR (Homo sapiens)
# test: Functional cAMP activity in the presence of 1% HSA
# Assay type: cell-based
# condition parameters: HEK-293 clonal cell line, in the presence of 1% HSA; geometric mean of relative EC50; read-out: cAMP Rel EC50, hGcgR
Starred links: 1 amine or outer side, 2 acyl side, 3 side chain; linkers in the order of their positions; H or OH if unused. Non-standard residues stand in square brackets, D forms with d. Groups on a side chain read outwards from the residue. *: point of attachment. C18 diacid = O=C(O)CCCCCCCCCCCCCCCCC(=O)*; γGlu = O=C(O)[C@H](CCC(=O)[*:2])N[*:1]; αMe4Pal = C[C@](N)(Cc1ccncc1)C(=O)O; αMeY = C[C@](N)(Cc1ccc(O)cc1)C(=O)O; 4Pal = N[C@@H](Cc1ccncc1)C(=O)O; αMeL = CC(C)C[C@](C)(N)C(=O)O; Orn = NCCC[C@H](N)C(=O)O; Aib = CC(C)(N)C(=O)O
measured quantity: pEC50
Please report pEC50 as the negative decimal logarithm of the molar concentration, giving only the number.

H-Y[Aib]QGTFTSDFS[Orn][αMeL]LD[Orn]K([γGlu-γGlu-C18 diacid])AQ[Aib]AFIE[αMeY]LLEGGPSSGAPPPGGSEE-NH2 [Example 1049]
5.89
H-Y[Aib]QGTFTSD[4Pal]SQ[αMeL]LD[Orn]K([γGlu-γGlu-C18 diacid])AQ[αMe4Pal]AFIEYLIAGGPSSGEPPPSGTEEE-NH2 [Example 986]
6.15
H-Y[Aib]QGTFTSD[4Pal]S[Orn][αMeL]LD[Orn]K([γGlu-γGlu-C18 diacid])AQ[αMe4Pal][Orn]FIE[αMeY]LLAGGPSSGAPPPSGSEE-NH2 [Example 997]
6.28
H-Y[Aib]QGTFTSDFS[Orn][αMeL]LD[Orn]K([γGlu-γGlu-C18 diacid])AQ[Aib]AFIEYLLEGGPSSGAPPPGGSEE-NH2 [Example 1048]
5.71
H-Y[Aib]QGTFTSDFS[Orn][αMeL]LDKK([γGlu-γGlu-C18 diacid])AQ[Aib]AFIEYLLAGGPSSGAPPPEGSEE-NH2 [Example 1051]
5.74

Now, please, on to the next substance.
**Q:** // lookup pEC50 for H-Y[Aib]QGTFTSDFS[Orn][αMeL]LD[Orn]K([γGlu-γGlu-C18 diacid])AQ[Aib]AFIE[αMe4Pal]LLAGGPSSGAPPPEGSEE-NH2 [Example 1053]
**A:** 5.46
